biological target: SaFtsZ (Staphylococcus aureus); construct: purchased Cytoskeleton, Inc. FTZ02; assay: Surface plasmon resonance analysis; type: binding, S. aureus; conditions: equilibrium dissociation constant (Kd), SPR, immobilized SaFtsZ, 25°C, steady-state
Sequence (P0A031 whole entry): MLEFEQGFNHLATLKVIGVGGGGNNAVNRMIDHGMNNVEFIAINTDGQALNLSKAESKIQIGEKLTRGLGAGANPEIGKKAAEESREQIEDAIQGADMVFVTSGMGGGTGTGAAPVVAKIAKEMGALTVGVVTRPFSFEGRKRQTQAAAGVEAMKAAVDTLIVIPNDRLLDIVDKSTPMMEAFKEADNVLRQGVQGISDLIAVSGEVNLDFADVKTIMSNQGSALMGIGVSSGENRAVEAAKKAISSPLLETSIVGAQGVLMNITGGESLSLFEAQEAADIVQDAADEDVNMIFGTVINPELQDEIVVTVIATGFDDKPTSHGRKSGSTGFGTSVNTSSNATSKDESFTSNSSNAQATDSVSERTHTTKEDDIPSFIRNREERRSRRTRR
quantity_name: Kd (nM)
Hi! Could you send only the number? It should be in nM, unit omitted.

*Q* Look at this molecule and give its reported Kd. C[C@H]1[C@H](C)CC[C@]2(C(=O)O)CC[C@]3(C)C(=CC[C@@H]4[C@@]5(C)C[C@@H](O)[C@H](O)[C@@](C)(CO)[C@@H]5CC[C@]43C)[C@H]12
*A* 2400
